# PROTOCOL SUMMARY: chemical genetic growth profiling, strain panel (AID 1159580);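 note: tested at 20 µM; growth read once vehicle control cultures reached saturation at 30 °C; 1 = growth at the plate median or of vehicle wells; lower values mean less growth of the strain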
# CONDITION: S. cerevisiae deletion strains, growth OD, locus YEL003W, strain gim4
About 2,000 (36%) of roughly 5,500 compounds were called active. Roughly 18% stayed inconclusive and do not appear here. Cut-off read from the data, not from the text of the source: active = normalized growth mostly below about 0.91 (no sharp cut-off); inconclusive = no clear call, values can overlap the other calls; inactive = mostly above about 0.92. The list shows a part of the results.
Classes used: true for active, false for inactive

{"COMPOUND": "CC(C)c1cccc(C(C)C)c1O", "LABEL": "false"}
{"COMPOUND": "CC(C)c1cccc(O)c(=O)c1", "LABEL": "true"}
{"COMPOUND": "COC1CC(OC2CCC3(C)C(CCC4C3CCC3(C)C(C5=CC(=O)OC5)C(OC(C)=O)CC43O)C2)OC(C)C1O (centres undefined)", "LABEL": "false"}
{"COMPOUND": "C[C@]12CCC3C(CC[C@]4(O)C[C@@H](O)CC[C@]34C=O)[C@@]1(O)CCC2C1=CC(=O)OC1 (some centres undefined)", "LABEL": "false"}

* * *

# PROTOCOL SUMMARY: chemical genetic growth profiling, strain panel (AID 1159580);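 note: tested at 20 µM; growth read once vehicle control cultures reached saturation at 30 °C; 1 = growth at the plate median or of vehicle wells; lower values mean less growth of the strain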
# CONDITION: S. cerevisiae deletion strains, growth OD, locus YGR252W, strain gcn5, hits give low values
The whole screen tested about 5,500 compounds, of which about 2,000 (36%) were called active. Roughly 18% stayed inconclusive and do not appear here. Some of the results follow.
The entries below come with measured normalized growth values attached.
MEASURED ENDPOINT: normalized growth

{"MOLECULE": "COc1ccc(-c2cc(=O)c3c(O)c(OC)c(O[C@H]4O[C@H](CO[C@@H]5O[C@@H](C)[C@H](O)[C@@H](O)[C@H]5O)[C@@H](O)[C@H](O)[C@H]4O)cc3o2)cc1", "MEASURED VALUE": "0.955 (inactive)"}
{"MOLECULE": "COC(=O)NC(=S)Nc1ccccc1NC(=S)NC(=O)OC", "MEASURED VALUE": "0.981 (inactive)"}
{"MOLECULE": "CC(C)=CC1C(CO)C1(C)C (stereo not drawn)", "MEASURED VALUE": "0.989 (inactive)"}
{"MOLECULE": "COc1ccc(-c2cc(=O)c3c(O)cc(O)cc3o2)cc1", "MEASURED VALUE": "1.04 (inactive)"}
{"MOLECULE": "CC(=O)OC1CC[C@@]2(C)C(CCC3C2CC[C@]2(C)C(C4=CC(=O)OC4)C(OC(C)=O)CC32O)C1 (stereo partly drawn)", "MEASURED VALUE": "0.993 (inactive)"}
{"MOLECULE": "C[C@H]1O[C@@H](O[C@H]2[C@@H](O)C[C@H](O[C@H]3[C@@H](O)C[C@H](O[C@H]4CC[C@]5(C)C6CC[C@]7(C)[C@@H](C8=CC(=O)OC8)CC[C@]7(O)C6CC[C@@H]5C4)O[C@@H]3C)O[C@@H]2C)C[C@H](O)[C@@H]1O (stereo partly drawn)", "MEASURED VALUE": "0.967 (inactive)"}
{"MOLECULE": "COc1cc(O)c2c(=O)cc(-c3ccc(O)cc3)oc2c1", "MEASURED VALUE": "0.949 (inactive)"}
{"MOLECULE": "Oc1ccc2c3c1OC1[C@@H](O)CC[C@@]4(O)[C@@H](C2)N(CC2CCC2)CC[C@]314 (stereo partly drawn)", "MEASURED VALUE": "0.984 (inactive)"}
